# Experiment Summary: Dynamic vapor sorption (DVS) water uptake
# Type: physicochemical
# Conditions Used: DVS
Where a name gives a salt, the structure may show the parent alone.
For each record, write down the corresponding total water uptake.
State the answer as a number, implicitly in %.

Request: Item under review: O=C1C2=C(CCN(Cc3ccccc3)C2)N2CCN=C2N1Cc1ccc(F)cc1F [Compound I Sulfate Form A] . Reported total water uptake?
Result: 2.5

Request: // query: O=C1C2=C(CCN(Cc3ccccc3)C2)N2CCN=C2N1Cc1ccc(F)cc1F [Compound I Form A]
Result: 0.3

Request: // query: O=C1C2=C(CCN(Cc3ccccc3)C2)N2CCN=C2N1Cc1ccc(F)cc1F [Compound I Fumarate Form A]
Result: 0.7

Request: // query: O=C1C2=C(CCN(Cc3ccccc3)C2)N2CCN=C2N1Cc1ccc(F)cc1F [Compound I Besylate Form A]
Result: 0.3

Request: // query: O=C1C2=C(CCN(Cc3ccccc3)C2)N2CCN=C2N1Cc1ccc(F)cc1F [Compound I Tosylate Form A]
Result: 1.3

Request: // query: O=C1C2=C(CCN(Cc3ccccc3)C2)N2CCN=C2N1Cc1ccc(F)cc1F [Compound I Form 2]
Result: 2.5

Request: // query: O=C1C2=C(CCN(Cc3ccccc3)C2)N2CCN=C2N1Cc1ccc(F)cc1F [Compound I Form 1]
Result: 7.5

* * *

# Experiment Summary: Dynamic vapor sorption (DVS) water uptake
# Type: physicochemical
# Conditions Used: characterised by DVS water uptake
Structures can show the parent of a compound that is named as a salt.
Quantity Name: hygroscopicity

Some compounds with recorded hygroscopicity:
>  <Compound>
O=C1C2=C(CCN(Cc3ccccc3)C2)N2CCN=C2N1Cc1ccc(F)cc1F [Compound I Tosylate Form A]

>  <hygroscopicity>
slightly hygroscopic

$$$$
>  <Compound>
O=C1C2=C(CCN(Cc3ccccc3)C2)N2CCN=C2N1Cc1ccc(F)cc1F [Compound I Sulfate Form A]

>  <hygroscopicity>
slightly hygroscopic

$$$$
>  <Compound>
O=C1C2=C(CCN(Cc3ccccc3)C2)N2CCN=C2N1Cc1ccc(F)cc1F [Compound I Fumarate Form A]

>  <hygroscopicity>
slightly hygroscopic

$$$$
>  <Compound>
O=C1C2=C(CCN(Cc3ccccc3)C2)N2CCN=C2N1Cc1ccc(F)cc1F [Compound I Form 1]

>  <hygroscopicity>
hygroscopic

$$$$
>  <Compound>
O=C1C2=C(CCN(Cc3ccccc3)C2)N2CCN=C2N1Cc1ccc(F)cc1F [Compound I Form A]

>  <hygroscopicity>
non-hygroscopic

$$$$
>  <Compound>
O=C1C2=C(CCN(Cc3ccccc3)C2)N2CCN=C2N1Cc1ccc(F)cc1F [Compound I Form 2]

>  <hygroscopicity>
hygroscopic

$$$$

Request: Item under review: O=C1C2=C(CCN(Cc3ccccc3)C2)N2CCN=C2N1Cc1ccc(F)cc1F [Compound I Besylate Form A] . Reported hygroscopicity?
Result: non-hygroscopic

* * *

# Experiment Summary: Dynamic vapor sorption (DVS) water uptake
# Type: physicochemical
# Conditions Used: DVS, moles of water
Where a name gives a salt, the structure may show the parent alone.
For each record, write down the corresponding total water uptake.
State the answer as a number, implicitly in mol.

Request: Item under review: O=C1C2=C(CCN(Cc3ccccc3)C2)N2CCN=C2N1Cc1ccc(F)cc1F [Compound I Sulfate Form A] . Reported total water uptake?
Result: 1.3

Request: // query: O=C1C2=C(CCN(Cc3ccccc3)C2)N2CCN=C2N1Cc1ccc(F)cc1F [Compound I Tosylate Form A]
Result: 0.4
